- testSystem: human β1-adrenoceptor polymorphic variant Gly49/Gly389 (Homo sapiens, UniProt P08588, S49G)
- Sequence (P08588 whole entry S49G): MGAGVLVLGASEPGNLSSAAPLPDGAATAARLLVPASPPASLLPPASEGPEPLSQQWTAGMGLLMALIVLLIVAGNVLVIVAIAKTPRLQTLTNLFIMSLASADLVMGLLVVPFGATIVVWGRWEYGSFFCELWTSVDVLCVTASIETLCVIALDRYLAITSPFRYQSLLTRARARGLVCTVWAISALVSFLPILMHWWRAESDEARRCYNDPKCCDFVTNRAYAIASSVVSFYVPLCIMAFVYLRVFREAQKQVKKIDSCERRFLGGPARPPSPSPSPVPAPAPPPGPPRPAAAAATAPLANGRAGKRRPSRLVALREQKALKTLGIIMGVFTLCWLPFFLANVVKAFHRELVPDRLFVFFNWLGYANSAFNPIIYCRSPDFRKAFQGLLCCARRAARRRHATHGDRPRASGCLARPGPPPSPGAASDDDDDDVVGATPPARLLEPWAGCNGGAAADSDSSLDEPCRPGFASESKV
- assayDetails: cell-based
- experimentalConditions: Log KD, competition with 3H-CGP 12177, Gly49/Gly389 transiently transfected populations
observedProperty: pKd
One number for each entry, as −log10 of the molar value.

Return reported pKd. Input compound: CC(C)(Cc1c[nH]c2ccccc12)NCC(O)COc1ccccc1C#N (stereo not shown) [Bucindolol]
8.80

---

- testSystem: human wildtype β1-adrenoceptor (Ser49/Gly389) (Homo sapiens, UniProt P08588)
- Sequence (P08588 whole entry): as the sequence (P08588 whole entry S49G) above, with G49S counted along it
- assayDetails: cell-based
- experimentalConditions: Log KD, competition with 3H-CGP 12177, WT transiently transfected populations
observedProperty: Kd (nM)
Answers are plain numbers, in nM.

Return reported Kd. Input compound: CC(C)(Cc1c[nH]c2ccccc12)NCC(O)COc1ccccc1C#N (stereo not shown)
1.32

---

- testSystem: human wildtype β1-adrenoceptor (Ser49/Gly389) (Homo sapiens, UniProt P08588)
- assayDetails: cell-based
- experimentalConditions: Log KD, competition with 3H-CGP 12177, additional stable WT cell line T3
observedProperty: Kd

Return reported Kd. Input molecule: CC(C)(Cc1c[nH]c2ccccc12)NCC(O)COc1ccccc1C#N (stereo not shown) [Bucindolol]
1.45 nM

---

- testSystem: human β1-adrenoceptor polymorphic variant Ser49/Arg389 (Homo sapiens, UniProt P08588, G389R)
- Sequence (P08588 whole entry G389R): as the sequence (P08588 whole entry S49G) above, with G49S, G389R counted along it
- assayDetails: cell-based
- experimentalConditions: Log KD, competition with 3H-CGP 12177, whole cells, main stable CHO cell line Ser49/Arg389
observedProperty: Kd (nM)
Answers are plain numbers, in nM.

Return reported Kd. Input compound: CC(C)(Cc1c[nH]c2ccccc12)NCC(O)COc1ccccc1C#N (stereo not shown)
0.347

---

- testSystem: human wildtype β1-adrenoceptor (Ser49/Gly389) (Homo sapiens, UniProt P08588)
- assayDetails: cell-based
- experimentalConditions: Log KD, competition with 3H-CGP 12177, additional stable WT cell line T88
observedProperty: Kd (nM)
Answers are plain numbers, in nM.

Return reported Kd. Input molecule: CC(C)(Cc1c[nH]c2ccccc12)NCC(O)COc1ccccc1C#N (stereo not shown)
0.355

---

- testSystem: human wildtype β1-adrenoceptor (Ser49/Gly389) (Homo sapiens, UniProt P08588)
- assayDetails: cell-based
- experimentalConditions: Log KD, competition with 3H-CGP 12177, whole cells, main stable CHO cell line WT (Ser49/Gly389)
observedProperty: Kd

Return reported Kd. Input compound: CC(C)(Cc1c[nH]c2ccccc12)NCC(O)COc1ccccc1C#N (stereo not shown)
0.275 nM

---

- testSystem: human β1-adrenoceptor polymorphic variant Ser49/Arg389 (Homo sapiens, UniProt P08588, G389R)
- assayDetails: cell-based
- experimentalConditions: Log KD, competition with 3H-CGP 12177, additional stable Ser49/Arg389 cell line W93
observedProperty: pKd
Numbers only, as −log10 of the molar value.

Return reported pKd. Input molecule: CC(C)(Cc1c[nH]c2ccccc12)NCC(O)COc1ccccc1C#N (stereo not shown)
9.19

---

- testSystem: human β1-adrenoceptor polymorphic variant Gly49/Gly389 (Homo sapiens, UniProt P08588, S49G)
- assayDetails: cell-based
- experimentalConditions: Log KD, competition with 3H-CGP 12177, additional stable Gly49/Gly389 cell line V87
observedProperty: Kd
Form entry: enter the amount, then its unit.

Return reported Kd. Input compound: CC(C)(Cc1c[nH]c2ccccc12)NCC(O)COc1ccccc1C#N (stereo not shown) [Bucindolol]
0.427 nM

---

- testSystem: human β1-adrenoceptor polymorphic variant Gly49/Gly389 (Homo sapiens, UniProt P08588, S49G)
- assayDetails: cell-based
- experimentalConditions: Log KD, competition with 3H-CGP 12177, whole cells, main stable CHO cell line Gly49/Gly389
observedProperty: Kd (nM)
One number for each entry, in nM.

Return reported Kd. Input molecule: CC(C)(Cc1c[nH]c2ccccc12)NCC(O)COc1ccccc1C#N (stereo not shown)
0.339

Values compiled from paper PMC3826719.
